- EXPERIMENTAL_TARGET: human orexin-1 receptor (Homo sapiens (Human), UniProt O43613)
- Sequence (O43613 whole entry): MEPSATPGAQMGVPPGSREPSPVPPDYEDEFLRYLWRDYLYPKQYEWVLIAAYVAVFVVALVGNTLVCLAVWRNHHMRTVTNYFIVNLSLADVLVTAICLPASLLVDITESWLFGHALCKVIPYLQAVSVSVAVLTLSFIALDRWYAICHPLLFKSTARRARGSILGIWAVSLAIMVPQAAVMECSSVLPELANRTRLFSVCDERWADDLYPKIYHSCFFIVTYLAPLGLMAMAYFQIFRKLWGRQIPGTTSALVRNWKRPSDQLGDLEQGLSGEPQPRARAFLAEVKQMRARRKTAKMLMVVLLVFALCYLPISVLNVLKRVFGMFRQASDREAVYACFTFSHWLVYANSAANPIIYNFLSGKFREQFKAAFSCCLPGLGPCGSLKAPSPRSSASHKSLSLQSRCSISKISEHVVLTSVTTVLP
- METHOD_DESCRIPTION: In vitro assay: intracellular calcium measurements (FLIPR), antagonistic activity
- MEASUREMENT_CONDITIONS: CHO cells expressing human orexin-1 receptor, orexin-A agonist, geometric mean, read-out: IC50 Ox1
MEASURED_PROPERTY: IC50 (µM)

COc1ccc2nc([C@@H]3CCCN3C(=O)c3ccc(C)cc3-n3nccn3)[nH]c2c1 [Ex. 1.160] :: 0.245

1. Cc1cccc(-c2sc(C)nc2C(=O)N2CC[C@H](C)[C@H]2c2nc3c(C(F)(F)F)cccc3[nH]2)c1 [Ex. 4.158]
2. COc1ccc(-c2cccc(C(F)(F)F)c2)c(C(=O)N2CCC[C@@]2(C)c2nc3ccc(Cl)c(C)c3[nH]2)c1F [Ex. 5.303]
Query string: Which entry shows the lesser value of IC50 here, 1 or 2 ? Refer to your chosen entry by its label in the reply.
Result string: 1
(1: 0.002 µM, 2: 0.029 µM)

1. CO[C@H]1CN(C(=O)c2ccc(C)cc2-n2nccn2)C(C)(c2nc3c(C)c(Cl)ccc3[nH]2)C1 (stereo partly shown) [Ex. 3.49]
2. C=C1C[C@@H](c2nc3cccc(C)c3[nH]2)N(C(=O)c2cc(C)c(C)cc2-n2nccn2)C1 [Ex. 6.108]
Query string: Which entry shows the lesser value of IC50 here, 1 or 2 ? Refer to your chosen entry by its label in the reply.
Result string: 1

###

- EXPERIMENTAL_TARGET: UniProtKB O43614
- Sequence (O43614 whole entry): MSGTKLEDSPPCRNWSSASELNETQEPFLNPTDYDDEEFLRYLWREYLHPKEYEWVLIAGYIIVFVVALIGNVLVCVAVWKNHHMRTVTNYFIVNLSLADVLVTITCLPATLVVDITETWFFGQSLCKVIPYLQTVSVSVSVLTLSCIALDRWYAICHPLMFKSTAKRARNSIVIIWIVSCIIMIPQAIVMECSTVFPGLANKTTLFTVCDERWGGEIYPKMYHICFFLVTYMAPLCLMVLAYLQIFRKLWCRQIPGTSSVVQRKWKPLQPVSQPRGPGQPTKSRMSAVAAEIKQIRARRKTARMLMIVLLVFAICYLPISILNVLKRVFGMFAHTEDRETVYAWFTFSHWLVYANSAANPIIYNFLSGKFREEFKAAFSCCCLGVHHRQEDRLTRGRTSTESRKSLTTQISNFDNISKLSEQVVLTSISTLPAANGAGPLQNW
- METHOD_DESCRIPTION: In vitro assay: intracellular calcium measurements (FLIPR), antagonistic activity
- MEASUREMENT_CONDITIONS: CHO cells expressing human orexin-2 receptor, orexin-A agonist, geometric mean, read-out: IC50 Ox2
pIC50: −log10 of the molar value.
MEASURED_PROPERTY: pIC50

As a guide, the following entries are already answered.
C=C1C[C@@H](c2nc3cc(C)c(C)cc3[nH]2)N(C(=O)c2cc(C)ccc2-n2cccn2)C1 :: 7.60
Cc1nc(C(=O)N2CCC[C@@]2(C)c2nc3c(C)c(C)c(Br)cc3[nH]2)c(-c2ccc(F)cc2)s1 :: 8.10
CCn1c([C@]2(C)CCCN2C(=O)c2ccc(C)cc2-n2nccn2)nc2cc(C)c(C)cc21 :: 7.28

A. Cc1ccc(-c2ccccc2)c(C(=O)N2CCC[C@@]2(C)c2nc3c(C)c(Cl)ccc3[nH]2)c1
B. CO[C@H]1CN(C(=O)c2nc(C)ccc2-n2cccn2)C(C)(c2nc3c(C)c(Cl)ccc3[nH]2)C1 (stereo partly shown)
C. Cc1nc(C(=O)N2CC[C@H](C)[C@H]2c2nc3cc(C)c(C)cc3[nH]2)c(-c2cc(F)cc(F)c2)s1
D. Cc1ccc(C(=O)N2CCC[C@@]2(C)c2nc3cc(OC(F)(F)F)ccc3[nH]2)c(-c2cccnc2)c1
Query string: In this exercise, place the 4 compounds in ascending sequence of their recorded pIC50. Your reply should list the labels following the order given in the request.
Result string: C, D, B, A

###

- EXPERIMENTAL_TARGET: human orexin-1 receptor (Homo sapiens (Human))
- METHOD_DESCRIPTION: In vitro assay: intracellular calcium measurements (FLIPR), antagonistic activity
- MEASUREMENT_CONDITIONS: CHO cells expressing human orexin-1 receptor, orexin-A agonist, geometric mean, read-out: IC50 Ox1
pIC50: −log10 of the molar value.
MEASURED_PROPERTY: pIC50

COc1cccc(-c2nc(C(=O)N3CCC[C@@]3(C)c3nc4cc(Cl)c(C(F)(F)F)cc4[nH]3)c(-c3ccc(F)cc3)s2)c1 [Ex. 5.292] :: 7.47
Cc1ccc(-c2cccnc2)c(C(=O)N2CCC[C@@]2(C)c2nc3ccc(Cl)c(C)c3[nH]2)c1 [Ex. 5.217] :: 7.01
C[C@@]1(c2nc3cc(C(F)(F)F)c(Cl)cc3[nH]2)CCCN1C(=O)c1cc(F)ccc1-n1nccn1 [Ex. 5.136] :: 8.22

1. Cc1cc(C)c2nc([C@@H]3[C@@H](C)CCN3C(=O)c3nc(C)sc3-c3cccc(Cl)c3)[nH]c2c1 [Ex. 4.16]
2. C=C1C[C@@H](c2nc3cc(C(C)(C)C)ccc3[nH]2)N(C(=O)c2cc(C)ccc2-n2nccn2)C1 [Ex. 6.66]
3. COc1cc2nc([C@]3(C)CCCN3C(=O)c3cc(Cl)ccc3-n3nccn3)[nH]c2cc1OC [Ex. 5.64]
4. COc1cc2nc([C@@H]3[C@@H](C)CCN3C(=O)c3ncsc3-c3cccc(Cl)c3)[nH]c2cc1OC [Ex. 4.55]
Query string: # sort list by recorded pIC50, greatest to least Your reply should list the labels following the order given in the request.
Result string: 1, 3, 2, 4
(1: 9.00, 3: 7.77, 2: 7.24, 4: 6.78)
